- targetSystem: Androgen receptor (AR) (Homo sapiens, UniProt P10275)
- Sequence (P10275 1-920): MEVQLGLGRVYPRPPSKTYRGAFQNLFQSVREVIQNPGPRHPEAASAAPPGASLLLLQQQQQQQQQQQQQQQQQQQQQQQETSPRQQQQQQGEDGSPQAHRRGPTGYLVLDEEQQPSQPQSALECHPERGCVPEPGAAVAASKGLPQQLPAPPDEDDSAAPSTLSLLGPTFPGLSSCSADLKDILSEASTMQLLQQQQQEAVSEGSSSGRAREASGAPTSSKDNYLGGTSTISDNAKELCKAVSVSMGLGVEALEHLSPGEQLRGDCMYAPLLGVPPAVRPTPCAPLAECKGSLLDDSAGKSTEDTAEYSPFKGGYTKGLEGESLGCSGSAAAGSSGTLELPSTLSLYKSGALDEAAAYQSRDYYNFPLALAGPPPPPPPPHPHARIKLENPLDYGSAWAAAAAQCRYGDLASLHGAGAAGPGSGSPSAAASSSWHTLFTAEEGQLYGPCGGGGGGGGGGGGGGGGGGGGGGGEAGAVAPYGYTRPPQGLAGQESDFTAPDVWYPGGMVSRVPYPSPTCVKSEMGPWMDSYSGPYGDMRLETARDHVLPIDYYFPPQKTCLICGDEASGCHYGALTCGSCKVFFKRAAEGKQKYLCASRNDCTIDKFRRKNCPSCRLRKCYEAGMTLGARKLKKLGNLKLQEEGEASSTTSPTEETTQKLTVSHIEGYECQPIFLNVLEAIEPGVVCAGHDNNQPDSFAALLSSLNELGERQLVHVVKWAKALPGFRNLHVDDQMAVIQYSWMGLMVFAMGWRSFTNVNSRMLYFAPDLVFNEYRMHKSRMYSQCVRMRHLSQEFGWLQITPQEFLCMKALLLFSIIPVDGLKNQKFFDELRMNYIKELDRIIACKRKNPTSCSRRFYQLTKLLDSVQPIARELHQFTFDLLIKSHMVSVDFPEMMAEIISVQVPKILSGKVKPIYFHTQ
- assayInfo: Androgen receptor (AR) reporter gene assay (luciferase)
- experimentalSetup: AR+ARE/Luc HEK293T cells, stimulated with 11-KDHT, 24h incubation, Bright-Lite luminescence; read-out: HEK293 Luc IC50
- Description: Androgen receptor (AR) reporter gene assay […] • 1. dissolve the described compounds in 100% DMSO at a final concentration of 10 mM. […] Luminescence values (RLU) were measured using Envision. Based on the results, the IC50 values of the compounds described were calculated. […]
Items are presented alongside their recorded IC50.

> print(dat)
                                   compound  experimentalresult
1  N#Cc1cc2c(c(Cl)c1OCCCl)CCCC2NC(=O)c1ccccn1 (centres unmarked) [HANT-215]         1 to 500 nM

Input line: What value of measured IC50 is listed for Cn1c(=O)[nH]c2ccc(C3CCCc4c3cc(Cl)c(OCCCl)c4Cl)cc21 (centres unmarked) [HANT-117] ?
Output line: 1000 to 2000 nM

Input line: What value of measured IC50 is listed for Oc1ccc(C2CCCc3c2cc(Cl)c(OCCCl)c3Cl)cc1 (centres unmarked) [HANT-336B] ?
Output line: 1 to 500 nM

Input line: What value of measured IC50 is listed for O=C1Cc2cc(C3CCCc4c3cc(Cl)c(OCCCl)c4Cl)ccc2N1 (centres unmarked) [HANT-135] ?
Output line: 1 to 500 nM

Input line: What value of measured IC50 is listed for ClCCOc1c(Cl)cc2c(c1Cl)CCCN2c1ccc2[nH]ncc2n1 [HANT-165] ?
Output line: > 2000 nM
